Measured values drawn from patent US20250092033A1 for this set.

- target.or.test.system: MET D1228N (Homo sapiens, UniProt P08581, D1228N)
- Construct: purchased Signalchem M52-12IG
- Sequence (P08581 25-1390 D1228N): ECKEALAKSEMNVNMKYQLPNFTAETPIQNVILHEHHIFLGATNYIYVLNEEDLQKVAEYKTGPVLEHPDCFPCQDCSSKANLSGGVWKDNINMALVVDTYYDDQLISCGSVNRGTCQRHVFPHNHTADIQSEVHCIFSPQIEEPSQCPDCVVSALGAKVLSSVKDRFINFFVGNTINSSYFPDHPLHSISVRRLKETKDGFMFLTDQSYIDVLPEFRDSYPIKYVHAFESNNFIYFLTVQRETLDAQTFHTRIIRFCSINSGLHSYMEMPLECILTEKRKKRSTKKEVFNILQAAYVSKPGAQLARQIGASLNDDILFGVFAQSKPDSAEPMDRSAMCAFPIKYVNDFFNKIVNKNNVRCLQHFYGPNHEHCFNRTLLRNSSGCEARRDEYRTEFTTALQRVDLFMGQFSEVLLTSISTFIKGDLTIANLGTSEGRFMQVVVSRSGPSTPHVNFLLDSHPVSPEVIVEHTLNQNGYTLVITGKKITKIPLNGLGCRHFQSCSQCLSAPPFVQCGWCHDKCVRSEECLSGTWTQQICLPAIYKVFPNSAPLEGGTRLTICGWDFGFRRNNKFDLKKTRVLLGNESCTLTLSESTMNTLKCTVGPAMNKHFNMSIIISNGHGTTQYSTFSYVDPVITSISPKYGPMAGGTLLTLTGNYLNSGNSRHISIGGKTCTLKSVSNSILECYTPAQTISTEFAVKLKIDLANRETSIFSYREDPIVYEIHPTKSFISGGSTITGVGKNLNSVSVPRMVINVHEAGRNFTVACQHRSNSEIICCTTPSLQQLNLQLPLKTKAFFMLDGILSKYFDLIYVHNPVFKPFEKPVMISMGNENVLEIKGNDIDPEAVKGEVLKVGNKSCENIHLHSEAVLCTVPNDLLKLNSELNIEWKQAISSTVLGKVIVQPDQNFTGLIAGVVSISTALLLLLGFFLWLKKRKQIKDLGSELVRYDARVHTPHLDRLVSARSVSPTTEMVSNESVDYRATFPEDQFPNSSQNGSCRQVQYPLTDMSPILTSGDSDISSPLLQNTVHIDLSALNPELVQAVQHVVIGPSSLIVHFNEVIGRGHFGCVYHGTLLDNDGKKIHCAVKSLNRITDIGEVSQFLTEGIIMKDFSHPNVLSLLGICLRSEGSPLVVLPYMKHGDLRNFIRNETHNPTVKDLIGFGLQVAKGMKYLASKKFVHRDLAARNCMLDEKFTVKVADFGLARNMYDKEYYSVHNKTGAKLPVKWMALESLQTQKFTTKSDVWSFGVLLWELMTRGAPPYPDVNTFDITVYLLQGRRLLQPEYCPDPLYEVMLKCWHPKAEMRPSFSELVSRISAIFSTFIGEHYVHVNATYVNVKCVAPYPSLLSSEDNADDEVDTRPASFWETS
- experimental.protocol: Kinase inhibition experiment (HTRF KinEASE-TK kit), mutant MET D1228N
- Assay type: biochemical
- details: 10 concentrations, 3-fold dilution
- Protocol: The activity of the compounds was determined by detecting the residual amount of ATP after reacting with wild-type or mutant MET protein kinase by using an HTRF KinEASE-TK kit. […] 5) the fluorescence signals at 615 nm (cryptate) and 665 nm (XL665) were read with Envision 2104 or TECAN. […]
Entries and their IC50
Provide the reading as a plain figure in nM.

Observe how each entry below is paired with its result.
>>> df
                                  structure  observed_property  quantity_unit  observed_result
0  O=C(Nc1ccc(Oc2ccnc3[nH]nc(N[C@H]4C[C@H](O)C4)c23)c(F)c1)c1cccc(-c2ccc(F)cc2)[n+]1[O-]               IC50             nM               21
1  C[C@H](CO)Nc1n[nH]c2nccc(Oc3ccc(NC(=O)c4cccc(-c5ccc(F)cc5)[n+]4[O-])cc3F)c12               IC50             nM               18
2  O=C(Nc1ccc(Oc2ccnc3[nH]nc(NCC(CO)CO)c23)c(F)c1)c1cccc(-c2ccc(F)cc2)[n+]1[O-]               IC50             nM              7.5

Would you mind telling me what IC50 value was observed for C[C@H](CO)Nc1n[nH]c2nccc(Oc3ccc(NC(=O)c4ccc(C#N)c(-c5ccc(F)cc5)[n+]4[O-])cc3F)c12 ?
30.4

Would you mind telling me what IC50 value was observed for C[C@H](CO)Nc1n[nH]c2nccc(Oc3ccc(NC(=O)c4ccc(F)c(-c5ccc(Cl)cc5)[n+]4[O-])cc3F)c12 ?
17.7

Would you mind telling me what IC50 value was observed for C[C@H](CO)Nc1n[nH]c2nccc(Oc3ccc(NC(=O)c4cccc(-c5ccc(F)cc5F)[n+]4[O-])cc3F)c12 ?
14.8
